test system: Staphylococcus aureus; assay: Antibacterial activity against methicillin-sensitive Staphylococcus aureus after 16 hrs by agar dilution method; format: functional
For each record, write down the corresponding MIC.
Answers are plain numbers, in µg/mL.

CC(C)(C)c1ccc(C(=O)N/N=C2\C=C[C@]34C[C@H]5C[C@H](O[C@@]5(C)C3)[C@H]4[C@]2(C)CCC(=O)Nc2c(O)ccc(C(=O)O)c2O)cc1	16

[in] Report value: MIC, system: Staphylococcus aureus, compound: CC(=O)NC[C@H]1CN(c2ccc(N3CCOCC3)c(F)c2)C(=O)O1
[out] 1

###

system: Staphylococcus aureus; test: Antibacterial activity against methicillin-sensitive Staphylococcus aureus after 16 hrs by agar dilution method; type: functional
ENDPOINT NAME: MIC (µg/mL)
One number for each entry, in µg/mL.

For orientation, consider the following solved cases.
C[C@]12C[C@@]34C=C/C(=N\c5ccccc5)[C@@](C)(CCC(=O)Nc5c(O)ccc(C(=O)O)c5O)[C@@H]3[C@H](C[C@@H]1C4)O2	1
C[C@]12C[C@@]34C=CC(=O)[C@@](C)(CCC(=O)Nc5c(O)ccc(C(=O)O)c5O)[C@@H]3[C@H](C[C@@H]1C4)O2	0.5
C[C@]12C[C@]34C[C@H]1C[C@H](O2)[C@H]3[C@](C)(CCC(=O)Nc1c(O)ccc(C(=O)O)c1O)/C(=N/O)C[C@@H]4NO	16
C[C@]12C[C@@]34C=C/C(=N\NC(N)=S)[C@@](C)(CCC(=O)Nc5c(O)ccc(C(=O)O)c5O)[C@@H]3[C@H](C[C@@H]1C4)O2	16

Turning to the following compound.
[in] Give the reported value of MIC for this record: C[C@]12C[C@@]34CCC(=O)[C@@](C)(CCC(=O)Nc5c(O)ccc(C(=O)O)c5O)[C@@H]3[C@H](C[C@@H]1C4)O2
[out] 2

###

system: Staphylococcus aureus; experiment: Antibacterial activity against Staphylococcus aureus ATCC 29213 after 16 hrs by agar dilution method; format: functional; details: ATCC 29213, 16 h
Exercise: state measured MIC for each of the compounds provided.

# count of solved cases: 2
CO/N=C1\C=C[C@]23C[C@H]4C[C@H](O[C@@]4(C)C2)[C@H]3[C@]1(C)CCC(=O)Nc1c(O)ccc(C(=O)O)c1O	> 64 µg/mL
C[C@]12C[C@@]34C=C/C(=N\NC(=O)Cc5ccccc5)[C@@](C)(CCC(=O)Nc5c(O)ccc(C(=O)O)c5O)[C@@H]3[C@H](C[C@@H]1C4)O2	8 µg/mL

The record that follows has no MIC shown yet.
[in] Specify measured MIC for C[C@@]1(CCC(=O)Nc2c(O)ccc(C(=O)O)c2O)[C@H](O)CC[C@]23C[C@H]4C[C@H](O[C@@]4(C)C2)[C@H]31 .
[out] > 64 µg/mL

###

tested on: Staphylococcus aureus; assay: Antibacterial activity against methicillin-sensitive Staphylococcus aureus after 16 hrs by agar dilution method; type: functional
ENDPOINT NAME: MIC (µg/mL)
Numbers only, in µg/mL.

Here is how some molecules turned out for MIC.
CC(C)(C)OC(=O)N/N=C1\C=C[C@]23C[C@H]4C[C@H](O[C@@]4(C)C2)[C@H]3[C@]1(C)CCC(=O)Nc1c(O)ccc(C(=O)O)c1O	16
C[C@]12C[C@@]34C=C/C(=N\NC(=O)c5ccccc5)[C@@](C)(CCC(=O)Nc5c(O)ccc(C(=O)O)c5O)[C@@H]3[C@H](C[C@@H]1C4)O2	32
C[C@]12C[C@@]34C=C/C(=N\NC(=O)Cc5ccccc5)[C@@](C)(CCC(=O)Nc5c(O)ccc(C(=O)O)c5O)[C@@H]3[C@H](C[C@@H]1C4)O2	8
COc1ccc(O)c(C(=O)N/N=C2\C=C[C@]34C[C@H]5C[C@H](O[C@@]5(C)C3)[C@H]4[C@]2(C)CCC(=O)Nc2c(O)ccc(C(=O)O)c2O)c1	16
C=C1C[C@@]23C=CC(=O)[C@@](C)(CCC(=O)Nc4c(O)ccc(C(=O)O)c4O)[C@@H]2C[C@@H]1CC3	1

Provide reported MIC for each item, in the same order as listed.
1. C[C@]12C[C@@]34C=C/C(=N\NC(N)=O)[C@@](C)(CCC(=O)Nc5c(O)ccc(C(=O)O)c5O)[C@@H]3[C@H](C[C@@H]1C4)O2
2. C[C@]12C[C@@]34C=C/C(=N\O)[C@@](C)(CCC(=O)Nc5c(O)ccc(C(=O)O)c5O)[C@@H]3[C@H](C[C@@H]1C4)O2

[out]
8
16

###

test system: Staphylococcus aureus; assay: Antibacterial activity against Staphylococcus aureus ATCC 29213 after 16 hrs by agar dilution method; type: functional; settings: ATCC 29213, 16 h
ENDPOINT NAME: MIC

C[C@]12C[C@@]34CCC(=O)[C@@](C)(CCC(=O)Nc5c(O)ccc(C(=O)O)c5O)[C@@H]3[C@H](C[C@@H]1C4)O2	2 µg/mL
C=C1C[C@@]23C=CC(=O)[C@@](C)(CCC(=O)Nc4c(O)ccc(C(=O)O)c4O)[C@@H]2C[C@@H]1CC3 [PLATENCIN]	1 µg/mL
CC(=O)NC[C@H]1CN(c2ccc(N3CCOCC3)c(F)c2)C(=O)O1 [LINEZOLID]	1 µg/mL
C[C@]1(CCC(=O)Nc2c(O)ccc(C(=O)O)c2O)[C@@H]2[C@@H]3C[C@@H]4C[C@@]2(CC[C@@H]1O)C[C@]4(C)O3	> 64 µg/mL
C[C@]12C[C@@]34C=CC(=O)[C@@](C)(CCC(=O)Nc5c(O)ccc(C(=O)O)c5O)[C@@H]3[C@H](C[C@@H]1C4)O2	0.5 µg/mL

# per-item lookup of MIC; items listed below
1. C[C@]12C[C@@]34C=C/C(=N\O)[C@@](C)(CCC(=O)Nc5c(O)ccc(C(=O)O)c5O)[C@@H]3[C@H](C[C@@H]1C4)O2
2. C[C@]1(CCC(=O)Nc2c(O)ccc(C(=O)O)c2O)[C@@H]2[C@@H]3C[C@@H]4C[C@@]2(C=C[C@@H]1O)C[C@]4(C)O3

[out]
1: 32 µg/mL; 2: > 64 µg/mL

###

Please provide measured MIC for the entries that follow.
test system: Staphylococcus aureus; test: Antibacterial activity against Staphylococcus aureus ATCC 29213 after 16 hrs by agar dilution method; type: functional; conditions: ATCC 29213, 16 h
Numbers only, in µg/mL.

Example entries and their recorded answers appear below.
C[C@]12C[C@@]34C=C/C(=N\c5ccccc5)[C@@](C)(CCC(=O)Nc5c(O)ccc(C(=O)O)c5O)[C@@H]3[C@H](C[C@@H]1C4)O2	2
CC(C)(C)c1ccc(C(=O)N/N=C2\C=C[C@]34C[C@H]5C[C@H](O[C@@]5(C)C3)[C@H]4[C@]2(C)CCC(=O)Nc2c(O)ccc(C(=O)O)c2O)cc1	32
C[C@]12C[C@]34C[C@H]1C[C@H](O2)[C@H]3[C@](C)(CCC(=O)Nc1c(O)ccc(C(=O)O)c1O)/C(=N/O)C[C@@H]4NO	16

Consider now this further molecule.
[in] Assign MIC to the following record: C[C@]12C[C@@]34C=C/C(=N\NC(=O)c5ccccc5)[C@@](C)(CCC(=O)Nc5c(O)ccc(C(=O)O)c5O)[C@@H]3[C@H](C[C@@H]1C4)O2
[out] 32

###

tested on: Staphylococcus aureus; assay: Antibacterial activity against methicillin-sensitive Staphylococcus aureus after 16 hrs by agar dilution method; type: functional
ENDPOINT NAME: MIC

Known MIC results, listed for orientation:
CCO/N=C1\C=C[C@]23C[C@H]4C[C@H](O[C@@]4(C)C2)[C@H]3[C@]1(C)CCC(=O)Nc1c(O)ccc(C(=O)O)c1O	> 64 µg/mL
C[C@]1(CCC(=O)Nc2c(O)ccc(C(=O)O)c2O)[C@@H]2[C@@H]3C[C@@H]4C[C@@]2(CC[C@@H]1O)C[C@]4(C)O3	> 64 µg/mL

Consider now this further compound.
[in] Annotate the compound C[C@@]1(CCC(=O)Nc2c(O)ccc(C(=O)O)c2O)[C@H](O)C=C[C@]23C[C@H]4C[C@H](O[C@@]4(C)C2)[C@H]31 with its measured MIC.
[out] > 64 µg/mL

Taken from ChEMBL document CHEMBL4257508.
